# log10 of Ki per entry
System: Sigma non-opioid intracellular receptor 1 (Cavia porcellus, UniProt Q60492)
Sequence (Q60492 whole entry): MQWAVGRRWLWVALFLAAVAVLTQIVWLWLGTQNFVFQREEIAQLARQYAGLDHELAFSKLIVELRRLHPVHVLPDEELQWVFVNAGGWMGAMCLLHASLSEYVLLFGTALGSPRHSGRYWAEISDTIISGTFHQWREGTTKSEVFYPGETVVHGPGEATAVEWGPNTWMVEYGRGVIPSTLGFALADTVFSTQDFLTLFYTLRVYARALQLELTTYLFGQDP
Protocol Notes: Displacement of [3H]-(+)-pentazocine from sigma1 receptor in guinea pig brain cortex membranes incubated for 120 mins by solid scintillation counting method
Assay type: cell membranes
Observation Type: log10 of Ki (log10 of the value in µM)

>>> df
                              smiles_record                                    system  observation_type  reported_result
0  O=c1oc(-c2ccccc2)nn1CCCCN1CCC2(CC1)OCc1ccccc12  Sigma non-opioid intracellular receptor 1 (Cavia porcellus, UniProt Q60492)       log10 of Ki            -1.72
1    O=C1CCc2ccccc2N1CCCCN1CCN(C2CCCCC2)CC1  Sigma non-opioid intracellular receptor 1 (Cavia porcellus, UniProt Q60492)       log10 of Ki            -1.68
2  COc1cc2c(cc1OC)CN(CCCCn1nc(-c3ccccc3)oc1=O)CC2  Sigma non-opioid intracellular receptor 1 (Cavia porcellus, UniProt Q60492)       log10 of Ki             0.20
3  O=C1CCc2ccccc2N1CCCCN1CCc2ccc([N+](=O)[O-])cc2C1  Sigma non-opioid intracellular receptor 1 (Cavia porcellus, UniProt Q60492)       log10 of Ki            -0.75
4  Cc1ccc(CN(C)CCCCN2C(=O)CCc3ccccc32)c(C)c1  Sigma non-opioid intracellular receptor 1 (Cavia porcellus, UniProt Q60492)       log10 of Ki            -1.22
5  O=c1oc(-c2ccccc2)nn1CCCCN1CCN(c2ccc(F)cc2)CC1  Sigma non-opioid intracellular receptor 1 (Cavia porcellus, UniProt Q60492)       log10 of Ki            -0.42
6  O=c1oc(-c2ccccc2)nn1CCCCN1CCc2ccc([N+](=O)[O-])cc2C1  Sigma non-opioid intracellular receptor 1 (Cavia porcellus, UniProt Q60492)       log10 of Ki            -0.08
7  O=c1oc(-c2ccccc2)nn1CCCCN1CCN(C2CCCCC2)CC1  Sigma non-opioid intracellular receptor 1 (Cavia porcellus, UniProt Q60492)       log10 of Ki            -1.46

* * *

Protocol Notes: Cytotoxicity against human HeLa cells assessed as cell viability at 25 uM incubated for 48 hrs by MTT assay relative to control
Format: cell-based
Condition Description: read-out: Activity
# viability at 48 h, 25 µM per entry
Observation Type: viability at 48 h, 25 µM (%)

                              smiles_record  reported_result
0  O=C1CCc2ccccc2N1CCCCN1CCN(c2ccc(F)cc2)CC1               78
1  COc1cc2c(cc1OC)CN(CCCCN1C(=O)CCc3ccccc31)CC2               79
2  Cc1ccc(CN(C)CCCCN2C(=O)CCc3ccccc32)c(C)c1               59
3  Cc1ccc(CN(C)CCCCn2nc(-c3ccccc3)oc2=O)c(C)c1               74
4    O=C1CCc2ccccc2N1CCCCN1CCN(C2CCCCC2)CC1               75
5  O=c1oc(-c2ccccc2)nn1CCCCN1CCC2(CC1)OCc1ccccc12               80
6  COc1cc2c(cc1OC)CN(CCCCn1nc(-c3ccccc3)oc1=O)CC2               82
7  O=C1CCc2ccccc2N1CCCCN1CCC2(CC1)OCc1ccccc12               78
8  O=c1oc(-c2ccccc2)nn1CCCCN1CCN(C2CCCCC2)CC1               48

* * *

Protocol Notes: Cytotoxicity against human SH-SY5Y cells assessed as cell viability at 10 uM incubated for 48 hrs by MTT assay (reference value: 100 +/- 12.00%)
Type: cell-based
Condition Description: read-out: Activity
# viability at 48 h, 10 µM per entry
Observation Type: viability at 48 h, 10 µM (%)

>>> print(df.to_string())
                              smiles_record          observation_type  reported_result
0  Cc1ccc(CN(C)CCCCn2nc(-c3ccccc3)oc2=O)c(C)c1  viability at 48 h, 10 µM              121
1  O=c1oc(-c2ccccc2)nn1CCCCN1CCC2(CC1)OCc1ccccc12  viability at 48 h, 10 µM              120
2  Cc1ccc(CN(C)CCCCN2C(=O)CCc3ccccc32)c(C)c1  viability at 48 h, 10 µM               92
3  COc1cc2c(cc1OC)CN(CCCCN1C(=O)CCc3ccccc31)CC2  viability at 48 h, 10 µM               71
4  O=C1CCc2ccccc2N1CCCCN1CCC2(CC1)OCc1ccccc12  viability at 48 h, 10 µM              116
5  COc1cc2c(cc1OC)CN(CCCCn1nc(-c3ccccc3)oc1=O)CC2  viability at 48 h, 10 µM               97
6    O=C1CCc2ccccc2N1CCCCN1CCN(C2CCCCC2)CC1  viability at 48 h, 10 µM               91
7  O=c1oc(-c2ccccc2)nn1CCCCN1CCN(C2CCCCC2)CC1  viability at 48 h, 10 µM               81
8  O=C1CCc2ccccc2N1CCCCN1CCN(c2ccc(F)cc2)CC1  viability at 48 h, 10 µM              127

* * *

System: Sigma non-opioid intracellular receptor 1 (Cavia porcellus, UniProt Q60492)
Protocol Notes: Displacement of [3H]-(+)-pentazocine from sigma1 receptor in guinea pig brain cortex membranes incubated for 120 mins by solid scintillation counting method
pKi: −log10 of the molar value.
Observation Type: pKi

>>> df
                              smiles_record                                    system  reported_result
0  O=c1oc(-c2ccccc2)nn1CCCCN1CCN(c2ccccn2)CC1  Sigma non-opioid intracellular receptor 1 (Cavia porcellus, UniProt Q60492)             6.03
1  Cc1ccc(CN(C)CCCCn2nc(-c3ccccc3)oc2=O)c(C)c1  Sigma non-opioid intracellular receptor 1 (Cavia porcellus, UniProt Q60492)             7.70
2    O=C1CCc2ccccc2N1CCCCN1CCN(c2ccccn2)CC1  Sigma non-opioid intracellular receptor 1 (Cavia porcellus, UniProt Q60492)             6.92
3  COc1cc2c(cc1OC)CN(CCCCN1C(=O)CCc3ccccc31)CC2  Sigma non-opioid intracellular receptor 1 (Cavia porcellus, UniProt Q60492)             6.94
4  O=C1CCc2ccccc2N1CCCCN1CCN(c2ccc(F)cc2)CC1  Sigma non-opioid intracellular receptor 1 (Cavia porcellus, UniProt Q60492)             7.80
5  O=C1CCc2ccccc2N1CCCCN1CCC2(CC1)OCc1ccccc12  Sigma non-opioid intracellular receptor 1 (Cavia porcellus, UniProt Q60492)             7.74

* * *

Protocol Notes: Cytotoxicity against human HeLa cells assessed as cell viability at 50 uM incubated for 48 hrs by MTT assay relative to control
Format: cell-based
Condition Description: read-out: Activity
viability at 48 h, 50 µM strictly under 70% means 1 (yes); at 70% or over means 0 (no).

In [3]: df
Out[3]:
                              smiles_record  classification
0  O=C1CCc2ccccc2N1CCCCN1CCC2(CC1)OCc1ccccc12         1 (yes)
1  O=c1oc(-c2ccccc2)nn1CCCCN1CCC2(CC1)OCc1ccccc12         1 (yes)
2    O=C1CCc2ccccc2N1CCCCN1CCN(C2CCCCC2)CC1          0 (no)
3  COc1cc2c(cc1OC)CN(CCCCn1nc(-c3ccccc3)oc1=O)CC2          0 (no)
4  Cc1ccc(CN(C)CCCCN2C(=O)CCc3ccccc32)c(C)c1         1 (yes)
5  Cc1ccc(CN(C)CCCCn2nc(-c3ccccc3)oc2=O)c(C)c1          0 (no)
6  O=c1oc(-c2ccccc2)nn1CCCCN1CCN(C2CCCCC2)CC1         1 (yes)

* * *

System: Sigma intracellular receptor 2 (Rattus norvegicus, UniProt Q5U3Y7)
Sequence (Q5U3Y7 whole entry): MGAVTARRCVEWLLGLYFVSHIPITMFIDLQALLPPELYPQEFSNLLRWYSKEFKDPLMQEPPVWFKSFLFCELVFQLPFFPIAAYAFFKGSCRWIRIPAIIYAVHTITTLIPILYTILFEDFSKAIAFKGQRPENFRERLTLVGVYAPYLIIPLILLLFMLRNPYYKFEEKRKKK
Protocol Notes: Displacement of [3H]-di-o-tolylguanidine from sigma2 receptor in rat liver membranes in the presence of sigma1 receptor ligand (+)-pentazocine incubated for 120 mins by scintillation counting method
# Ki per entry
Observation Type: Ki (nM)

                               smiles_record  observation_type  reported_result
 0  O=c1oc(-c2ccccc2)nn1CCCCN1CCN(c2ccc(F)cc2)CC1                Ki              686
 1  O=C1CCc2ccccc2N1CCCCN1CCN(c2ccc(F)cc2)CC1                Ki               21
 2  O=c1oc(-c2ccccc2)nn1CCCCN1CCC2(CC1)OCc1ccccc12                Ki               16
 3  O=C1CCc2ccccc2N1CCCCN1CCC2(CC1)OCc1ccccc12                Ki               34
 4    O=C1CCc2ccccc2N1CCCCN1CCN(C2CCCCC2)CC1                Ki              1.5
 5  O=c1oc(-c2ccccc2)nn1CCCCN1CCc2ccc([N+](=O)[O-])cc2C1                Ki              383
 6  COc1cc2c(cc1OC)CN(CCCCn1nc(-c3ccccc3)oc1=O)CC2                Ki              864
 7  COc1cc2c(cc1OC)CN(CCCCN1C(=O)CCc3ccccc31)CC2                Ki               45
 8  Cc1ccc(CN(C)CCCCN2C(=O)CCc3ccccc32)c(C)c1                Ki               32
 9  Cc1ccc(CN(C)CCCCn2nc(-c3ccccc3)oc2=O)c(C)c1                Ki               21
10  O=C1CCc2ccccc2N1CCCCN1CCc2ccc([N+](=O)[O-])cc2C1                Ki               80
